Test system: MV-4-11 cells
assay-summary: Half inhibitory concentration (IC50) on BET-expressing tumor cells, CCK-8, MV-4-11
condition-description: read-out: IC50 (nM)/MV-4-11 cell line; MV-4-11 cells, 48/72 h, CCK-8
measured-parameter: log10 of IC50 (log10 of the value in nM)
// do not treat as linear: log10 of IC50, unit nM

For reference, reported log10 of IC50 for Cc1sc2c(c1C)C(c1ccc(Cl)cc1)=N[C@@H](CC(=O)N1CCN(CCCCSc3cccc4c3CN(C3CCC(=O)NC3=O)C4=O)CC1)c1nnc(C)n1-2 (some centres unmarked) stands at -1.29

For reference, reported log10 of IC50 for Cc1sc2c(c1C)C(c1ccc(Cl)cc1)=N[C@@H](CC(=O)N1CCN(CCCSc3cccc4c3CN(C3CCC(=O)NC3=O)C4=O)CC1)c1nnc(C)n1-2 (some centres unmarked) stands at -1.39

For reference, reported log10 of IC50 for Cc1sc2c(c1C)C(c1ccc(Cl)cc1)=N[C@@H](CC(=O)N1CCNCC1)c1nnc(C)n1-2 stands at 1.11

For reference, reported log10 of IC50 for Cc1sc2c(c1C)C(c1ccc(Cl)cc1)=N[C@@H](CC(=O)NCCN1CCNCC1)c1nnc(C)n1-2 stands at 1.25

For reference, reported log10 of IC50 for Cc1sc2c(c1C)C(c1ccc(Cl)cc1)=N[C@@H](CC(=O)NCCN1CCN(CCCSc3cccc4c3CN(C3CCC(=O)NC3=O)C4=O)CC1)c1nnc(C)n1-2 (some centres unmarked) stands at -1.40
